# Test system: MKL-1
# PROTOCOL_TEXT: qHTS assay to identify novel small-molecules to repurpose for Merkel cell carcinoma treatment (AID 1296009); further: nearly all actives have a fitted effect of over 60% in size
# CONDITION_PARAMETERS: MCC and control cell lines, CellTiter-Glo viability, 72 h; series mostly up to 46 µM
Records with an inconclusive call do not appear. The source made the active and inactive calls. The call rests on the fitted dose curve; in most records, active means well fitted inhibition curve with a large enough effect; inconclusive means small, poorly fitted or top-dose-only effect; inactive means flat fitted curve, though single readings scatter.
Outcomes: active, inactive

- MOLECULE: "CCOC(=O)C1=C(N)Oc2ccc(Br)cc2C1C(C#N)C(=O)OCC (stereo unspecified)"
  CATEGORY_LABEL: "inactive"
- MOLECULE: "CC(=NNC(=S)N1CCC1)c1ccccn1"
  CATEGORY_LABEL: "inactive"
- MOLECULE: "O=c1cc(-c2ccc(O)cc2)oc2cc(O)cc(O)c12"
  CATEGORY_LABEL: "active"
- MOLECULE: "O=C1Nc2ccc(Cl)cc2C(C#CC2CC2)(C(F)(F)F)O1 (stereo unspecified)"
  CATEGORY_LABEL: "inactive"
- MOLECULE: "COc1cc2c(cc1OC)CN(CCc1ccc(NC(=O)c3cc(OC)c(OC)cc3NC(=O)c3cnc4ccccc4c3)cc1)CC2"
  CATEGORY_LABEL: "inactive"
- MOLECULE: "CC(C)(C)C(=O)Oc1ccc2c(c1)nc(NC(=O)c1cccc([N+](=O)[O-])c1)n2CCCO"
  CATEGORY_LABEL: "inactive"
- MOLECULE: "NC(N)=Nc1nc(CSCC/C(N)=N/S(N)(=O)=O)cs1"
  CATEGORY_LABEL: "inactive"
- MOLECULE: "C[C@]12CCC3c4ccc(O)cc4CCC3C1CCC2=O (stereo partly specified)"
  CATEGORY_LABEL: "inactive"
- MOLECULE: "CN1C[C@H]2c3ccccc3Oc3ccc(Cl)cc3[C@@H]2C1"
  CATEGORY_LABEL: "inactive"
- MOLECULE: "O=C1NC(=O)C(=Cc2ccc3c(c2)OC(F)(F)O3)S1"
  CATEGORY_LABEL: "inactive"
- MOLECULE: "CC(C)C(=O)Nc1ncc(-c2cc(C(F)F)nn2-c2c(Cl)cccc2Cl)s1"
  CATEGORY_LABEL: "inactive"
